The measurements presented in this section are drawn from ChEMBL document CHEMBL3792297.

Entries and their log10 of GI50
# Test system: NCI-H23
# test: Growth inhibition of human NCI-H23 cells after 48 hrs by SRB assay
# Assay type: functional
# run-parameters: NCI-H23, 48 h
Recorded GI50 (log10, µM)

O=C(c1ccc2c(c1)Sc1ccccc1N2)c1c[nH]c2ccccc12 :: -0.41
COc1ccc(C(=O)N2c3ccccc3Sc3ccccc32)c(F)c1 :: 0.53
COc1ccc(C(=O)N2c3ccccc3Sc3ccccc32)c(OC)c1 :: -0.11
COc1ccc(C(=O)N2c3ccccc3Sc3ccccc32)cc1F :: -0.47

What value of log10 of GI50 has been recorded for this entry: `COc1ccc(C(=O)N2c3ccccc3Sc3ccccc32)c(C(F)(F)F)c1`
-0.24

###

Overview of reported inhibition of growth at 10 µM across a group of compounds:
# test: Growth inhibition of human PC3 cells at 10 uM after 48 hrs by SRB assay relative to control
# Format: functional
# run-parameters: PC-3, 48 h, read-out: GI
Use % as the unit, but write only the number.

Solved entries (count: 3):
O=C(c1ccc(Cl)cc1Cl)N1c2ccccc2Sc2ccccc21 :: 56
O=C(c1ccc(F)c(Cl)c1)N1c2ccccc2Sc2ccccc21 :: 60
COc1ccc(C(=O)c2ccc3c(c2)Sc2ccccc2N3C)cc1F :: 21

Can you share its inhibition of growth at 10 µM? I mean this compound: `COc1ccc(C(=O)c2ccc3c(c2)Sc2cc(C(=O)c4ccc(OC)c(F)c4)ccc2N3C)cc1F`
3

Name the reported inhibition of growth at 10 µM value associated with the compound `COc1ccc(C(=O)N2c3ccccc3Sc3ccccc32)c(C(F)(F)F)c1`
85

###

# test: Growth inhibition of human UO31 cells at 10 uM after 48 hrs by SRB assay relative to control
# Type: functional
# run-parameters: UO-31, 48 h, read-out: GI
property-name: inhibition of growth at 10 µM (%)
# unit: % | format: bare number

COc1ccc(C(=O)N2c3ccccc3Sc3ccccc32)c(C(F)(F)F)c1 :: 60
O=C(c1ccc2c(c1)Sc1ccccc1N2)c1c[nH]c2ccccc12 :: 58
O/N=C(/c1ccc2c(c1)Sc1ccccc1N2)c1c[nH]c2ccccc12 :: 41
O=C(c1ccc(Cl)cc1Cl)N1c2ccccc2Sc2ccccc21 :: 35
COc1ccc(C(=O)c2ccc3c(c2)Sc2ccccc2N3C)cc1F :: 2

Data request, read-out inhibition of growth at 10 µM, for `COc1ccc(C(=O)c2ccc3c(c2)Sc2cc(C(=O)c4ccc(OC)c(F)c4)ccc2N3C)cc1F`
1

Quick one: inhibition of growth at 10 µM for `O=C(c1ccc(F)cc1F)N1c2ccccc2Sc2ccccc21` ?
31

Could you tell me which inhibition of growth at 10 µM is on file for `COc1ccc(C(=O)N2c3ccccc3Sc3ccccc32)c(F)c1` ?
51

// returns reported inhibition of growth at 10 µM for input `COc1ccc(C(=O)N2c3ccccc3Sc3ccccc32)c(OC)c1`
52

Given the compound `COc1ccc(C(=O)N2c3ccccc3Sc3ccccc32)cc1F` , what is its reported inhibition of growth at 10 µM?
50

Consider the compound `O=C(c1ccc(F)c(Cl)c1)N1c2ccccc2Sc2ccccc21` and give its measured inhibition of growth at 10 µM.
27

###

GI50 by entry:
# test: Growth inhibition of human SW620 cells after 48 hrs by SRB assay
# Type: functional
# run-parameters: SW-620, 48 h
Number only, in nM; omit the unit.

Please look up its GI50: `COc1ccc(C(=O)N2c3ccccc3Sc3ccccc32)c(C(F)(F)F)c1`
425

###

# test: Growth inhibition of human OVCAR8 cells at 10 uM after 48 hrs by SRB assay relative to control
# Assay type: functional
# run-parameters: OVCAR-8, 48 h, read-out: GI
Lab note: compare inhibition of growth at 10 µM against 70%. Equal or greater, write true. Smaller, write false.

COc1ccc(C(=O)c2ccc3c(c2)Sc2ccccc2N3C)cc1F :: false
O=C(c1ccc(F)c(Cl)c1)N1c2ccccc2Sc2ccccc21 :: false

For this compound, is measured inhibition of growth at 10 µM 70% or higher? `O=C(c1ccc(F)cc1F)N1c2ccccc2Sc2ccccc21`
false

Is inhibition of growth at 10 µM for `O=C(c1ccc2c(c1)Sc1ccccc1N2)c1c[nH]c2ccccc12` at or above 70%?
true

###

# test: Growth inhibition of human OVCAR4 cells after 48 hrs by SRB assay
# Type: functional
# run-parameters: OVCAR-4, 48 h
property-name: GI50 (nM)
Could you give me the number in nM? Just the number is fine.

COc1ccc(C(=O)N2c3ccccc3Sc3ccccc32)c(C(F)(F)F)c1 :: 1980
COc1ccc(C(=O)N2c3ccccc3Sc3ccccc32)c(F)c1 :: 2010
COc1ccc(C(=O)N2c3ccccc3Sc3ccccc32)c(OC)c1 :: 3170
O=C(c1ccc2c(c1)Sc1ccccc1N2)c1c[nH]c2ccccc12 :: 4110

For `COc1ccc(C(=O)N2c3ccccc3Sc3ccccc32)cc1F` , what is its reported GI50?
1450

###

# Test system: MCF7
# test: Growth inhibition of human MCF7 cells at 10 uM after 48 hrs by SRB assay relative to control
# Type: functional
# run-parameters: MCF7, 48 h, read-out: GI
property-name: inhibition of growth at 10 µM

Check out these entries, answers already filled in.
COc1ccc(C(=O)N2c3ccccc3Sc3ccccc32)cc1F :: 82%
O=C(c1ccc(Cl)cc1Cl)N1c2ccccc2Sc2ccccc21 :: 48%
O=C(c1ccc2c(c1)Sc1ccccc1N2)c1c[nH]c2ccccc12 :: 80%
O/N=C(/c1ccc2c(c1)Sc1ccccc1N2)c1c[nH]c2ccccc12 :: 57%
O=C(c1ccc(F)c(Cl)c1)N1c2ccccc2Sc2ccccc21 :: 49%

Then this molecule:
Data request, read-out inhibition of growth at 10 µM, for `COc1ccc(C(=O)N2c3ccccc3Sc3ccccc32)c(OC)c1`
80%

###

# maps each entry to its inhibition
# Species: Ovis aries
# test: Inhibition of sheep brain tubulin polymerization at 100 uM by DAPI staining-based fluorimetric method
Write it as a number; the unit % goes unstated.

Entry `O=C(c1ccc(F)cc1Cl)N1c2ccccc2Sc2ccccc21` : reported inhibition = ?
44

I have this compound here, `COc1ccc(C(=O)N2c3ccccc3Sc3ccccc32)cc1F` , and I need its recorded inhibition.
99

What does the data say about its inhibition? Entry: `COc1ccc(C(=O)N2c3ccccc3Sc3ccccc32)c(C(F)(F)F)c1`
80

###

# test: Growth inhibition of human PC3 cells at 10 uM after 48 hrs by SRB assay relative to control
# Format: functional
# run-parameters: PC-3, 48 h, read-out: GI
property-name: inhibition of growth at 10 µM (%)
All answers are understood in %, so give the number only.

Below are worked cases with known answers.
O/N=C(/c1ccc2c(c1)Sc1ccccc1N2)c1c[nH]c2ccccc12 :: 72
COc1ccc(C(=O)N2c3ccccc3Sc3ccccc32)c(F)c1 :: 70

Shift focus to the following entry.
Reported inhibition of growth at 10 µM for `COc1ccc(C(=O)N2c3ccccc3Sc3ccccc32)cc1F` : what is it?
71

###

# test: Growth inhibition of human SNB19 cells at 10 uM after 48 hrs by SRB assay relative to control
# Type: functional
# run-parameters: SNB-19, 48 h, read-out: GI
Entries and their inhibition of growth at 10 µM values follow.

Examples with answers:
O=C(c1ccc2c(c1)Sc1ccccc1N2)c1c[nH]c2ccccc12 :: 41%
O/N=C(/c1ccc2c(c1)Sc1ccccc1N2)c1c[nH]c2ccccc12 :: 40%
O=C(c1ccc(F)c(Cl)c1)N1c2ccccc2Sc2ccccc21 :: 23%
COc1ccc(C(=O)c2ccc3c(c2)Sc2cc(C(=O)c4ccc(OC)c(F)c4)ccc2N3C)cc1F :: 6%
COc1ccc(C(=O)N2c3ccccc3Sc3ccccc32)c(F)c1 :: 64%

inhibition of growth at 10 µM for `COc1ccc(C(=O)N2c3ccccc3Sc3ccccc32)c(OC)c1` ?
68%

Would you kindly share the measured inhibition of growth at 10 µM for `COc1ccc(C(=O)N2c3ccccc3Sc3ccccc32)c(C(F)(F)F)c1` ?
69%

###

# test: Growth inhibition of human SW620 cells after 48 hrs by SRB assay
# Type: functional
# run-parameters: SW-620, 48 h
property-name: GI50 (nM)
Write the answer as a number in nM, unit excluded.

The cases that follow already have their GI50 on record.
O=C(c1ccc2c(c1)Sc1ccccc1N2)c1c[nH]c2ccccc12 :: 293
COc1ccc(C(=O)N2c3ccccc3Sc3ccccc32)c(F)c1 :: 458
COc1ccc(C(=O)N2c3ccccc3Sc3ccccc32)cc1F :: 282

We now examine a further molecule.
Bench note: what GI50 did `COc1ccc(C(=O)N2c3ccccc3Sc3ccccc32)c(OC)c1` show?
412

###

Collected inhibition of growth at 10 µM values appear next to each entry.
# test: Growth inhibition of human OVCAR8 cells at 10 uM after 48 hrs by SRB assay relative to control
# Format: functional
# run-parameters: OVCAR-8, 48 h, read-out: GI
Express the result in % but write the number alone.

I have this molecule here, `COc1ccc(C(=O)N2c3ccccc3Sc3ccccc32)c(OC)c1` , and I need its recorded inhibition of growth at 10 µM.
72

GET /values?readout=inhibition of growth at 10 µM&item= `COc1ccc(C(=O)N2c3ccccc3Sc3ccccc32)c(F)c1`
68

Name the recorded inhibition of growth at 10 µM for `COc1ccc(C(=O)c2ccc3c(c2)Sc2cc(C(=O)c4ccc(OC)c(F)c4)ccc2N3C)cc1F` .
6

What value of inhibition of growth at 10 µM has been reported for the following molecule? `O/N=C(/c1ccc2c(c1)Sc1ccccc1N2)c1c[nH]c2ccccc12`
24

Quick one: inhibition of growth at 10 µM for `COc1ccc(C(=O)N2c3ccccc3Sc3ccccc32)c(C(F)(F)F)c1` ?
85

Dear colleague, I am looking for the recorded inhibition of growth at 10 µM of the following molecule: `O=C(c1ccc(Cl)cc1Cl)N1c2ccccc2Sc2ccccc21`
49

Query (molecule): `COc1ccc(C(=O)N2c3ccccc3Sc3ccccc32)cc1F` ; field requested: inhibition of growth at 10 µM
97
